Test method notes: self-splicing fitness, log relative to wild type (ln ratio); higher = more splicing; Tetrahymena group I intron in knt gene, E. coli kanamycin selection, DiMSum; sequences stand for … in CUCUCU…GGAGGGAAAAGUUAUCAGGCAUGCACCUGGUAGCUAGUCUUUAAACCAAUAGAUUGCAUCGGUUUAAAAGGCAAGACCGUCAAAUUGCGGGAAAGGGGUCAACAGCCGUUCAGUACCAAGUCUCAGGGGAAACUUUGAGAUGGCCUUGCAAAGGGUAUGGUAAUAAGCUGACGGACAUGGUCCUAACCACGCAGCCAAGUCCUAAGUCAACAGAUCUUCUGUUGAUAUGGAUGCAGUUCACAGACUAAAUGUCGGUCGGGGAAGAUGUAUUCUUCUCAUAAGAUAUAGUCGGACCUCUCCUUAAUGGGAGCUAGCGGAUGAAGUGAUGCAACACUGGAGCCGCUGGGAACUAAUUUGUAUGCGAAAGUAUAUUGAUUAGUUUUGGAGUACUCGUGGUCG;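 note: selection with 25 µg/mL kanamycin versus none on LB agar overnight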
Setup conditions: 37 °C
Reported self-splicing fitness (ln) values for the following sequences.
Format: numeric value only, no unit, no commentary.

{"columns": ["Sequence input", "Recorded measurement"],
 "data": [
  ["GAAAAGCAAUAUUACGACUA", 0.403],
  ["GAUCAGCAAUAUUACGAGCC", -1.1],
  ["UAACAGCAAUAUUACGCCAC", -1.54]
]}

Per the record, `UGUUAGCAAUAUUACGAUUC` has self-splicing fitness (ln) of -0.83

Summary for this sequence, `UCCCAGCAAUAUUACGGCUA` : self-splicing fitness (ln) is -1.19

`ACCAAGCAAUAUUACGGUUU` has a reported self-splicing fitness (ln) of -2.08

// self-splicing fitness (ln) value for `AGGUAGCAAUAUUACGUCGA` : -0.563

In plain terms, `AAAAAGCAAUAUUACGAAUC` has a documented self-splicing fitness (ln) of -2.21

Data point: `CAUUAGCAAUAUUACGAAUG` ; self-splicing fitness (ln) = -2.28

Consider `CUUCAGCAAUAUUACGUUGC` . Its measured self-splicing fitness (ln) is -3.04

Form field self-splicing fitness (ln), entry `UGGUAGCAAUAUUACGCUUC` : -0.643

The reported self-splicing fitness (ln) of the sequence `UUUGAGCAAUAUUACGGAUC` was -2.24

Documented self-splicing fitness (ln) of `AGGGAGCAAUAUUACGGAGA` : -2.69

Looking up `CCUGAGCAAUAUUACGCUUC` , I see its self-splicing fitness (ln) listed as -2.4

The sequence `GCACAGCAAUAUUACGACCC` showed self-splicing fitness (ln) equal to 0.472

So, `CCCUAGCAAUAUUACGGCUA` ? Its self-splicing fitness (ln) was -3.13

# self-splicing fitness (ln) of `GAUAAGCAAUAUUACGCUAU` = -1.01

get_value(item= `UGGCAGCAAUAUUACGCACG` , readout=self-splicing fitness (ln)) returns 0.284
